Would you kindly list pIC50 for each of these compounds?
system: 3T3 cells; assay: MTT cell proliferation assay, 3T3; assay type: cell-based, mouse; settings: Mus musculus, NIH3T3, 3T3 cells, approximately 64-72 hours incubation; read-out: MTT Assay IC50, 3T3
pIC50: −log10 of the molar value. Where a name gives a salt, the structure may show the parent alone.

The compound CC1(CNC(=O)/C=C/c2ccc(N)nc2)Cc2cc(-c3ccc(C(=O)N4CCOCC4)cc3)cc(Cl)c2O1 (stereo not shown) [Compound 349] showed pIC50 equal to > 7.00

The compound Nc1ccc(/C=C/C(=O)NCC2Cc3cc(-c4cnc(C(=O)N5CCOCC5)c(F)c4)cc(Cl)c3O2)cn1 (stereo not shown) [Compound 329] showed pIC50 equal to 4.52 to 5.30

The compound O=C(/C=C/c1cccnn1)NCC1Cc2cc(-c3ccc(C(=O)N4CCOCC4)cc3)cc(Cl)c2O1 (stereo not shown) [Compound 236] showed pIC50 equal to 5.30 to 7.00

The compound CC(=O)c1ccc(-c2cc(Cl)c3c(c2)CC(CNC(=O)/C=C/c2sc4ccccc4c2Cl)O3)s1 (stereo not shown) [Compound 291] showed pIC50 equal to < 4.52

The compound Nc1ccc(/C=C/C(=O)NCC2Cc3cc(-c4ccc(C(=O)N5CCCCC5)cc4)cc(Cl)c3O2)cn1 (stereo not shown) [Compound 234] showed pIC50 equal to 4.52 to 5.30

The compound Nc1ccc(/C=C/C(=O)NCC2Cc3cc(-c4ccc(C(=O)N5CCOCC5)nc4)cc(Cl)c3O2)cn1 (stereo not shown) [Compound 248] showed pIC50 equal to < 4.52

The compound Nc1ccc(/C=C/C(=O)NCC2Cc3cc(-c4ccc(C(=O)C(=O)N5CCOCC5)cc4)cc(Cl)c3O2)cn1 (stereo not shown) [Compound 909] showed pIC50 equal to 5.30 to 7.00

The compound Nc1ccc(/C=C/C(=O)NCC2Cc3cc(-c4ncc(C(=O)N5CCOCC5)cn4)cc(Cl)c3O2)cn1 (stereo not shown) [Compound 330] showed pIC50 equal to 4.52 to 5.30

The compound Nc1ccc(/C=C/C(=O)NCC2Cc3cc(-c4cnc(C(=O)N5CCOCC5)nc4)cc(Cl)c3O2)cn1 (stereo not shown) [Compound 323] showed pIC50 equal to 4.52 to 5.30

The compound CC(=O)c1ccc(-c2cc(Cl)c3c(c2)CC(CNC(=O)CCc2cccnc2)O3)s1 (stereo not shown) [Compound 369] showed pIC50 equal to 4.52 to 5.30

The compound CC(=O)c1ccc(-c2cc(Cl)c3c(c2)CC(CNC(=O)/C=C/c2cc(C)n(-c4cc(C)on4)c2C)O3)s1 (stereo not shown) [Compound 288] showed pIC50 equal to < 4.52

The compound CC(=O)c1ccc(-c2cc(Cl)c3c(c2)CC(CNC(=O)/C=C/c2c(C)nn(-c4ccccc4)c2Cl)O3)s1 (stereo not shown) [Compound 211] showed pIC50 equal to < 4.52

The compound Nc1ccc(CNC(=O)/C=C/C2Cc3cc(-c4ccc(S(=O)(=O)N5CCOCC5)cc4)cc(Cl)c3O2)cn1 (stereo not shown) [Compound 350] showed pIC50 equal to 5.30 to 7.00

The compound Nc1ccc(CNC(=O)/C=C/C2Cc3cc(-c4ccc(C(=O)N5CC(F)(F)C5)cc4)cc(Cl)c3O2)cn1 (stereo not shown) [Compound 351] showed pIC50 equal to 5.30 to 7.00

The compound COc1ccc(/C=C/C(=O)NCC2Cc3cc(-c4ccc(C(C)=O)s4)cc(Cl)c3O2)cn1 (stereo not shown) [Compound 296] showed pIC50 equal to < 4.52

The compound Nc1ccc(/C=C/C(=O)NCC2Cc3c(-c4ccc(C(=O)N5CC(F)(F)C5)cc4)ccc(Cl)c3O2)cn1 (stereo not shown) [Compound 340] showed pIC50 equal to > 7.00

The compound CC(=O)c1ccc(-c2cc(Cl)c3c(c2)CC(CNC(=O)/C=C/c2c(C)nn4c(C(F)(F)F)ccnc24)O3)s1 (stereo not shown) [Compound 287] showed pIC50 equal to < 4.52

The compound Nc1ccc(/C=C/C(=O)NCC2Cc3c(-c4ccc(C(=O)N5CCOCC5)nc4)ccc(Cl)c3O2)cn1 (stereo not shown) [Compound 910] showed pIC50 equal to 4.52 to 5.30

The compound CC(=O)c1ccc(-c2cc(Cl)c3c(c2)CC(CNC(=O)/C=C/c2cncc(S(=O)(=O)N(C)C)c2)O3)s1 (stereo not shown) [Compound 210] showed pIC50 equal to < 4.52

The compound CC(=O)c1ccc(-c2ccc(Cl)c3c2CC(CNC(=O)/C=C/c2ccc(N)nc2)O3)s1 (stereo not shown) [Compound 218, hydrochloride] showed pIC50 equal to 4.52 to 5.30

The compound CC(C)(C)c1ccc(-c2ccc(C(=O)N3CCOCC3)cc2)c2c1OC(CNC(=O)/C=C/c1ccc(N)nc1)C2 (stereo not shown) [Compound 355] showed pIC50 equal to 5.30 to 7.00

The compound Nc1ccc(CNC(=O)/C=C/C2Cc3cc(-c4ccc(C(=O)N5CCOCC5)cc4)cc(Cl)c3O2)cn1 (stereo not shown) [Compound 907, hydrochloride] showed pIC50 equal to 4.52 to 5.30

The compound CC(=O)c1ccc(-c2cc(Cl)c3c(c2)CC(CNC(=O)/C=C/c2cc(C)n(-c4nccs4)c2C)O3)s1 (stereo not shown) [Compound 285] showed pIC50 equal to < 4.52

The compound CC(=O)c1ccc(-c2cc(Cl)c3c(c2)CC(CNC(=O)/C=C/c2ccno2)O3)s1 (stereo not shown) [Compound 293] showed pIC50 equal to < 4.52

The compound CN(C)C(=O)c1ccc(-c2cc(Cl)c3c(c2)CC(CNC(=O)/C=C/c2ccc(N)nc2)O3)o1 (stereo not shown) [Compound 324] showed pIC50 equal to 4.52 to 5.30

The compound Nc1ccc(/C=C/C(=O)NCC2Cc3cc(-c4cc(F)c(C(=O)N5CC(F)(F)C5)c(F)c4)cc(Cl)c3O2)cn1 (stereo not shown) [Compound 335] showed pIC50 equal to 5.30 to 7.00

The compound Cc1noc(C)c1-c1cc(Cl)c2c(c1)CC(CNC(=O)/C=C/c1cccnn1)O2 (stereo not shown) [Compound 235] showed pIC50 equal to 4.52 to 5.30

The compound CN1CCN(C(=O)c2ccc(-c3cc(Cl)c4c(c3)CC(CNC(=O)/C=C/c3ccc(N)nc3)O4)cc2)CC1 (stereo not shown) [Compound 237] showed pIC50 equal to 5.30 to 7.00

* * *

tested on: MS751 cells; assay: MTT cell proliferation assay, MS751; type: cell-based, human; conditions: Homo sapiens, MS751, MS751 cells; eight concentrations 1 nM to 30 μM; incubation approximately 64-72 hours; read-out: MTT Assay IC50, MS751
pIC50: −log10 of the molar value.
OBSERVATION_TYPE: pIC50

The compound CC(=O)c1ccc(-c2cc(Cl)c3c(c2)CC(CNC(=O)/C=C/c2cccnc2)O3)s1 (centres unmarked) [Compound 27] showed pIC50 equal to > 7.00

The compound COc1cccc(-c2cc(Cl)c3c(c2)CC(CNC(=O)/C=C/c2cccnc2)O3)c1F (centres unmarked) showed pIC50 equal to 5.30 to 7.00

The compound CC(=O)c1ccc(-c2cc(Cl)c3c(c2)CC(CNC(=O)/C=C/C2C(Cl)=NC4=CC=CCN42)O3)s1 (centres unmarked) showed pIC50 equal to 4.52 to 5.30

The compound CC(=O)c1ccc(-c2cc(Cl)c3c(c2)CC(CN)O3)s1 (centres unmarked) showed pIC50 equal to 4.52 to 5.30

The compound CC(=O)c1ccc(-c2cc(Cl)c3c(c2)CC(CNC(=O)/C=C/c2ccc(C#N)cc2)O3)s1 (centres unmarked) showed pIC50 equal to < 4.52

The compound O=C(/C=C/c1cccnc1)NCC1Cc2cc(-c3cc(Cl)cc(Cl)c3)cc(Cl)c2O1 (centres unmarked) showed pIC50 equal to 5.30 to 7.00

The compound CC(=O)c1ccc(-c2cc(Cl)c3c(c2)CC(CNC(=O)/C=C/c2cn(C)c4ccccc24)O3)s1 (centres unmarked) showed pIC50 equal to < 4.52

The compound CC(=O)c1ccc(-c2cc(Cl)c3c(c2)CC(CNC(=O)/C=C/c2cnn(C)c2)O3)s1 (centres unmarked) showed pIC50 equal to < 4.52

* * *

system: 3T3 cells; assay: MTT cell proliferation assay, 3T3; assay type: cell-based, mouse; details: Mus musculus, NIH3T3, 3T3 cells, approximately 64-72 hours incubation; read-out: MTT Assay IC50, 3T3
OBSERVATION_TYPE: IC50

3T3 cells assay, molecule Nc1ccc(/C=C/C(=O)NCC2Cc3cc(-c4cccc(C(=O)N5CCOCC5)c4)cc(Cl)c3O2)cn1 (stereo not shown) [Compound 239] , recorded IC50 = 0.1 to 5 µM

3T3 cells assay, molecule Nc1ccc(/C=C/C(=O)NCC2Cc3cc(-c4c(F)cc(C(=O)N5CCOCC5)cc4F)cc(Cl)c3O2)cn1 (stereo not shown) [Compound 902] , recorded IC50 = 0.1 to 5 µM

3T3 cells assay, molecule Nc1ccc(/C=C/C(=O)NCC2Cc3c(-c4cc(F)c(C(=O)N5CCOCC5)c(F)c4)ccc(Cl)c3O2)cn1 (stereo not shown) [Compound 908] , recorded IC50 = 0.1 to 5 µM

3T3 cells assay, molecule CC(=O)c1ccc(-c2cc(Cl)c3c(c2)CC(CNC(=O)/C=C/c2cncc(C)c2)O3)s1 (stereo not shown) [Compound 280] , recorded IC50 = > 30 µM

3T3 cells assay, molecule CC(=O)c1ccc(-c2cc(Cl)c3c(c2)CC(CNC(=O)/C=C/c2[nH]cnc2C)O3)s1 (stereo not shown) [Compound 212] , recorded IC50 = > 30 µM

3T3 cells assay, molecule Nc1ccc(CNC(=O)/C=C/C2Cc3c(-c4ccc(S(=O)(=O)N5CCOCC5)cc4)ccc(Cl)c3O2)cn1 (stereo not shown) [Compound 364] , recorded IC50 = 5 to 30 µM

3T3 cells assay, molecule CC(=O)c1ccc(-c2cccc3c2OC(CNC(=O)/C=C/c2ccc(N)nc2)C3)s1 (stereo not shown) [Compound 305] , recorded IC50 = 5 to 30 µM
